Source of measurements: patent US20260242359A1

The compounds listed here are annotated with their inhibition at 10 µM.
Test system: PMA-induced release of endogenous HB-EGF from human peripheral blood mononuclear cells (PBMCs)
Assay: Example 16: ELISA-based HB-EGF release assay, PMA-induced, PBMCs from healthy donor
Format: cell-based
Conditions: Homo sapiens, PBMC, 22 h, 10 μM final concentration, PMA 25 ng/ml, delta Buffer stimulated vs unstimulated = 100% inhibition
quantity kind: inhibition at 10 µM (%)

[[record]]
compound = "Cc1c(C(=O)NCc2ccco2)sc(=O)n1Cc1ccccc1F [Compound 7]"
value_reported = 107

[[record]]
compound = "CCOC(=O)c1ccc(Nc2nc3nonc3n3nnnc23)cc1 [Compound 2]"
value_reported = 100

[[record]]
compound = "Cc1c(C(=O)NCc2cccs2)sc(=O)n1Cc1ccccc1F [Compound 5]"
value_reported = 34

[[record]]
compound = "CNC(=O)[C@H](Cc1ccccc1)NC(=O)[C@H](CC(C)C)[C@H](CSc1cccs1)C(=O)NO [Batimastat, reference compound]"
value_reported = 98.5

[[record]]
compound = "Cc1c(C(=O)NCc2cccs2)sc(=O)n1Cc1ccccc1 [Compound 4]"
value_reported = 38.7

[[record]]
compound = "O=C(c1c(Cl)cccc1Cl)N1CCC(Cc2ccc(F)cc2)CC1 [Compound 3]"
value_reported = 22.4

